B1: HEEH_KT_rd6_3632 (parent)
chain: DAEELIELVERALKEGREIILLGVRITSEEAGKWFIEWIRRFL

variants of: B1; assay: folding stability dG (cDNA display proteolysis); higher = more stable; conditions: PBS, room temperature
Let's look at some variants and their measured folding stability dG.
Give the number; kcal/mol is assumed, so skip it.

change	folding stability dG (kcal/mol)
T27D	4.05

# folding stability dG (variant: E3K ) is 3.8

# folding stability dG of E30I = 3.75

In plain terms, L13K has a documented folding stability dG of 3.07

variant I19R , folding stability dG observed: 2.81

Per the records, this variant ( L22D ) has folding stability dG equal to 2.66

// folding stability dG lookup, variant = R11T , result: 3.62

Record summary for L5F : reported folding stability dG = 3.6
